Below, each entry is listed with its recorded Growth Rate.
# Test system: Fibroblast
# Test Name: Incucyte cell viability with human fibroblast; note: unitless GR value; below 1 slowed growth and below 0 cell loss
# Assay type: toxicity, cell-based
# Experimental Setup: 24 h, 10 µM, compound concentration 10 uM, replicate number 1
Square brackets hold non-standard residues; d marks the D form. Peptide text beside a SMILES is read from it.
Number only, please.

Here is how some compounds turned out for Growth Rate.
[
  {
    "Compound": "[2H]C([2H])([2H])C1(C([2H])([2H])[2H])Cn2nc(-c3ccc(F)cn3)c(-c3ccnc4[nH]ncc34)c2CO1",
    "Growth Rate": 0.73
  },
  {
    "Compound": "COc1cc(Nc2ncc(F)c(Nc3ccc4c(n3)NC(=O)C(C)(C)O4)n2)cc(OC)c1OC",
    "Growth Rate": -0.02
  },
  {
    "Compound": "CC(=O)O[C@]1(C(C)=O)CC[C@H]2[C@@H]3CCC4=CC(=O)CCC4=C3[C@@H](c3ccc(N(C)C)cc3)C[C@@]21C [ULIPRISTAL ACETATE]",
    "Growth Rate": 0.18
  },
  {
    "Compound": "Cc1ccc(C(=O)Nc2ccc(S(=O)(=O)[O-])c3cc(S(=O)(=O)[O-])cc(S(=O)(=O)[O-])c23)cc1NC(=O)c1cccc(NC(=O)Nc2cccc(C(=O)Nc3cc(C(=O)Nc4ccc(S(=O)(=O)[O-])c5cc(S(=O)(=O)[O-])cc(S(=O)(=O)[O-])c45)ccc3C)c2)c1.[Na+].[Na+].[Na+].[Na+].[Na+].[Na+] [SURAMIN HEXASODIUM]",
    "Growth Rate": 0.42
  },
  {
    "Compound": "CC(=O)N[C@@H](C)C(=O)N[C@@H](CCC(=O)O)C(=O)N[C@H](C(=O)N[C@@H](C=O)CC(=O)O)C(C)C (Ac-AEV[dD]-aldehyde)",
    "Growth Rate": 0.31
  },
  {
    "Compound": "Cc1cc(Cn2c(=O)n(Cc3cnc(C)s3)c(=O)c3cc(S(=O)(=O)NC4(C)CC4)ccc32)n(C)n1",
    "Growth Rate": 0.47
  },
  {
    "Compound": "CN1CCc2c(n(Cc3ccc(C(=O)NO)cc3)c3ccccc23)C1",
    "Growth Rate": 1
  },
  {
    "Compound": "O=C(Nc1c[nH]nc1C(=O)NC1CCNCC1)c1cc(F)cc(F)c1",
    "Growth Rate": -0.45
  },
  {
    "Compound": "COc1cc2c(NCC3CCN(C)CC3)cc(-c3ccc(C)o3)nc2cc1OCCCN1CCCC1",
    "Growth Rate": 0.34
  },
  {
    "Compound": "Nc1ccccc1NC(=O)CCCCCC(=O)Nc1ccccc1",
    "Growth Rate": 1
  }
]

# Growth Rate lookup, item Cc1cc(/N=N/c2ccc3c(c2)CCC(=O)N3)c(N)cc1O
1

Requested field: Growth Rate. Item: Cl.Cl.Nc1ncnc2c1ncn2[C@@H]1O[C@H](C(=O)N2CCN(CC(=O)Nc3cccc4c3CNC4=O)CC2)[C@@H](O)[C@H]1O
1

Growth Rate for O=S(=O)(O)c1ccc2cc(/N=N/c3cc(S(=O)(=O)O)c4cccnc4c3O)ccc2c1 ?
0.17

// Growth Rate lookup, key: O=C1C(=O)N(Cc2ccccc2)c2ccc(S(=O)(=O)N3CCC[C@H]3COc3ccc(C(F)(F)F)cc3)cc21
-0.08

Could you tell me which Growth Rate is on file for CC1=NN(c2ccc(C(=O)O)cc2)C(=O)/C1=C/c1ccc(-c2cc(C)c(C)cc2[N+](=O)[O-])o1 ?
1

Look up Growth Rate: N[C@@H](CC(=O)N1CCN(C(c2ccc(F)cc2)c2ccc(F)cc2)CC1)C(=O)N1Cc2ccccc2C1
1

Value lookup for Growth Rate; key = O=C(O)/C(S)=C/c1ccc(I)cc1
1

Data credit: ChEMBL document CHEMBL5724709
